# Test system: BEM1-1
# Protocol: DHFR-PCA on solid medium, bait BEM1-1 (Fig. 1B)
# Format: cell-based, Saccharomyces cerevisiae
# Assay setup: bait BEM1-1, label = prey; 2-8 replicates
Quantity name: medrep (log2 median colony size normalized to plate background, PCA score)
Just the number.

Looking up YGL153W (protein, UniProt P53112 2-341, looked up) Peroxisomal membrane protein …: SDVVSKDRKALFDSAVSFLKDESIKDAPLLKKIEFLKSKGLTEKEIEIAMKEPKKDGIVGDEVSKKIGSTENRASQDMYLYEAMPPTLPHRDWKDYFVMATATAGLLYGAYEVTRRYVIPNILPEAKSKLEGDKKEIDDQFSKIDTVLNAIEAEQAEFRKKESETLKELSDTIAELKQALVQTTRSREKIEDEFRIVKLEVVNMQNTIDKFVSDNDGMQELNNIQKEMESLKSLMNNRMESGNAQDNRLFSISPNGIPGIDTIPSASEILAKMGMQEESDKEKENGSDANKDDNAVPAWKKAREQTIDSNASIPEWQKNTAANEISVPDWQNGQVEDSIP , I found its medrep (log2 median colony size normalized to plate background, PCA score) recorded as 2.088

Looking up YDL065C (protein, UniProt Q07418 1-339, looked up) Peroxisomal membrane protein …: MNENEYDNFDDLDDLLDEDPTKLDEAEPDDVQAKGSVYNDSENKEKNAESKDSDGVQVANESEEDPELKEMMVDLQNEFANLMKNNGNENNVKTEDFNKLISALEEAAKVPHQQMEQGCSSLKSNSTDKGTVNGSNPGFKNIVSNTLDRLKENGNKVDTSLAEETKESQRSGQNNNIDDILSQLLDQMVASGGKESAENQFDLKDGEMDDAITKILDQMTSKEVLYEPMKEMRSEFGVWFQENGENEEHKEKIGTYKRQFNIVDEIVNIYELKDYDELKHKDRVTELLDELEQLGDSPIRSANSPLKHGNEEEELMKMLEIDGNDPNLGNLDKELTDGC , I found its medrep (log2 median colony size normalized to plate background, PCA score) recorded as 3.086

Others:
Looking up YER114C (protein) PMYIAINEYFKRMEDELDMKPGDKIKVITDDEEYKDGWYFGRNLRTNEEGLYPVVFTQKIT , I found its medrep (log2 median colony size normalized to plate background, PCA score) recorded as 2.85
